B1: TPR 5TU (parent)
chain: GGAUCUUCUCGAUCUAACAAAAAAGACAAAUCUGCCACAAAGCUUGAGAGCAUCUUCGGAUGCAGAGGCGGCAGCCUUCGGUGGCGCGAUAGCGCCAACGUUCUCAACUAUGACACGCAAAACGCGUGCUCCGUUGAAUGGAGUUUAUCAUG

Variants of: B1
protocol text: polymerase ribozyme fitness, log enrichment relative to wild type (log ratio); higher = more active; in vitro selection for triplet polymerase activity
Fewer inactive variants are shown than the library holds.
quantity measured: polymerase ribozyme fitness (log ratio)

// polymerase ribozyme fitness (log ratio) value for A24C C85U A120C U146A : ≤ -4.2

// polymerase ribozyme fitness (log ratio) value for A40G G81A G88C : ≤ -4.2

// polymerase ribozyme fitness (log ratio) value for C8U A37C C93A U151G : ≤ -4.2

// polymerase ribozyme fitness (log ratio) value for G25U C32U A40U U56A G80C C85A C87A C116G U146G A150U : ≤ -4.2

// polymerase ribozyme fitness (log ratio) value for C36G G65A G83A A98C : ≤ -4.2

// polymerase ribozyme fitness (log ratio) value for A22U A40U G42C C75A U90G : ≤ -4.2

// polymerase ribozyme fitness (log ratio) value for G42A G50A C76U G84U G92A A107C C116G : ≤ -4.2

// polymerase ribozyme fitness (log ratio) value for A29C A37U G133A : ≤ -4.2

// polymerase ribozyme fitness (log ratio) value for G70A G88C U144C : ≤ -4.2

// polymerase ribozyme fitness (log ratio) value for C14G C35A A60G U130C U134C : ≤ -4.2

// polymerase ribozyme fitness (log ratio) value for U6A A37G G80A C87A U102G G152A : ≤ -4.2

// polymerase ribozyme fitness (log ratio) value for G11A C27A A37C G59C G83A G86A G92A U102G G117U : ≤ -4.2

// polymerase ribozyme fitness (log ratio) value for C51A G59U G84U : ≤ -4.2

// polymerase ribozyme fitness (log ratio) value for C57G U78A G84A G94C C103U C105A G133U G140U U144C : ≤ -4.2

// polymerase ribozyme fitness (log ratio) value for C14A A19G G68A C99A C123U : ≤ -4.2

// polymerase ribozyme fitness (log ratio) value for U44A U53G G67A U78A G81C G88A G92C A138U : ≤ -4.2

// polymerase ribozyme fitness (log ratio) value for C63U G81C U82C U102G U104A C108A A150C : ≤ -4.2

// polymerase ribozyme fitness (log ratio) value for C27U A47C U56G C76U U78A G94A A97U C118U : ≤ -4.2

// polymerase ribozyme fitness (log ratio) value for C5A U6A G94U C123U U148G : ≤ -4.2

// polymerase ribozyme fitness (log ratio) value for A60C G62C G83U G133A : ≤ -4.2

// polymerase ribozyme fitness (log ratio) value for G58A G88U C96U C118A C125A G133A : ≤ -4.2

// polymerase ribozyme fitness (log ratio) value for A89U A91U C116U : ≤ -4.2

// polymerase ribozyme fitness (log ratio) value for C69A G81U G84U : ≤ -4.2

// polymerase ribozyme fitness (log ratio) value for A91U A147G : ≤ -4.2

// polymerase ribozyme fitness (log ratio) value for A12G A24G C35A U44G G50C G71C G124A : ≤ -4.2

// polymerase ribozyme fitness (log ratio) value for C5U G50A C54A C76U G84U C95U C114U : ≤ -4.2

// polymerase ribozyme fitness (log ratio) value for C8A G58C U82A A98G G136U : ≤ -4.2

// polymerase ribozyme fitness (log ratio) value for U13A G58A C87U C105A C108U G124A U145A : ≤ -4.2

// polymerase ribozyme fitness (log ratio) value for A29U U109G C149G : ≤ -4.2

// polymerase ribozyme fitness (log ratio) value for A49U C54G C72A U82G A110U : ≤ -4.2

// polymerase ribozyme fitness (log ratio) value for C87G G92C C125U U127G U135G G141C : ≤ -4.2

// polymerase ribozyme fitness (log ratio) value for A3C C35U C75A C129G : ≤ -4.2

// polymerase ribozyme fitness (log ratio) value for A26C U45G C63U C75U G80C G112C U144G : ≤ -4.2

// polymerase ribozyme fitness (log ratio) value for G42A G50C U55A G84A G143U : ≤ -4.2

// polymerase ribozyme fitness (log ratio) value for A64G C69G C75A C85A A89U C93A U104G : ≤ -4.2

// polymerase ribozyme fitness (log ratio) value for U6G A73C C99U : ≤ -4.2

// polymerase ribozyme fitness (log ratio) value for G86C G92A : ≤ -4.2

// polymerase ribozyme fitness (log ratio) value for A17G A49C G59U G92A A113G A119U : -4.03

// polymerase ribozyme fitness (log ratio) value for A29C C96G : -4.15

// polymerase ribozyme fitness (log ratio) value for A21U C69A G88U A97C : ≤ -4.2

// polymerase ribozyme fitness (log ratio) value for C85U A121U C132A U134A : -4.16

// polymerase ribozyme fitness (log ratio) value for C54U U82A G83A A98G : -1.89

// polymerase ribozyme fitness (log ratio) value for U4G A12G A17G C93U G141C : -3.94

// polymerase ribozyme fitness (log ratio) value for C63G G65C C93G A137C A142U : ≤ -4.2

// polymerase ribozyme fitness (log ratio) value for A60G G117C G124U : 0.122

// polymerase ribozyme fitness (log ratio) value for A30U U45G C93U C103G C118G : ≤ -4.2

// polymerase ribozyme fitness (log ratio) value for G81C A89U C96G : -0.784

// polymerase ribozyme fitness (log ratio) value for C35U A73G : -0.161

// polymerase ribozyme fitness (log ratio) value for C57U G59A G86A U134A U148A : ≤ -4.2

// polymerase ribozyme fitness (log ratio) value for A49G A73G : -0.67

// polymerase ribozyme fitness (log ratio) value for G68A C87A A106C G117U : ≤ -4.2

// polymerase ribozyme fitness (log ratio) value for U55A C93U A115U G143U : ≤ -4.2

// polymerase ribozyme fitness (log ratio) value for A20C A21U A23C C51A C123A A138U : ≤ -4.2

// polymerase ribozyme fitness (log ratio) value for A49U A60C : -3.47

// polymerase ribozyme fitness (log ratio) value for U9G U145C : -3.95

// polymerase ribozyme fitness (log ratio) value for C51A A52C A73G G83U U127C : ≤ -4.2

// polymerase ribozyme fitness (log ratio) value for C5A A26G A115G : ≤ -4.2

// polymerase ribozyme fitness (log ratio) value for G48C C85A A120G : -2.75

Hey, just so you know, these numbers are from the RNAGym collection of RNA variant scans (doi:10.1073/pnas.2313332121).
